Measured inhibition at 0.1 µM values are reported for all entries that follow.
# TARGET_UNDER_TEST: ICRAC current (CRAC ion channels), RBL-2H3 cells (Rattus norvegicus)
# Construct: endogenous in cells; host or cells: RBL-2H3 (rat basophilic leukemia cells)
# Sequence (Q5M848 whole entry): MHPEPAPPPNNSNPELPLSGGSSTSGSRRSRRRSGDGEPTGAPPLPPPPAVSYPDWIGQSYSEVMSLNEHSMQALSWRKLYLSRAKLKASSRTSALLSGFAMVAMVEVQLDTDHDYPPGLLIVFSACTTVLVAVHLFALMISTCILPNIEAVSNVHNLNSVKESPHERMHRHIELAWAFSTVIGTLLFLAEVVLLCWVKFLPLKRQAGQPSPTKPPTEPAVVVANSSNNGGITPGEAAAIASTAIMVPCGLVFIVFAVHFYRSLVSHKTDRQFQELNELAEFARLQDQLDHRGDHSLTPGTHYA
# ASSAY_DETAILS: Automated patch clamp (Qpatch) inhibition of ICRAC current in RBL-2H3 cells
# Type: cell-based
# CONDITION_SUMMARY: compound at 100 nM, method calculates % ICRAC inhibition
ASSAY_METRIC: inhibition at 0.1 µM

Cn1cc(-c2ccc(Cl)c(-c3cnc(NC(=O)c4cccc(F)c4F)cn3)c2)cn1: 98%
CCc1sc(-c2cc(C)on2)nc1-c1ccc(NC(=O)c2cncc(Cl)c2C)nc1: 73%
CCc1sc(-c2cnc(C)cn2)nc1-c1ccc(C(=O)Nc2cnc(C)cc2C)cc1: 40%
Cn1cc(-c2ccc(Cl)c(-c3cnc(NC(=O)c4ccc(F)cc4F)cn3)c2)cn1: 82%
Cc1cc(C)c(NC(=O)c2ccc(-c3cc(-c4nnn(C)n4)ccc3C)cc2)cn1: 36%

* * *

# Tested on: IL-2 production in Jurkat T-cells
# ASSAY_DETAILS: Inhibition of IL-2 production, Jurkat/PHA/1% FBS, ELISA
# Assay type: cell-based
# CONDITION_SUMMARY: Homo sapiens, read-out: IL-2 inhibition Jurkat/PHA/1% FBS IC50 (nM), PHA 2.5 μg/mL, 20 hours
ASSAY_METRIC: IC50 (nM)

Cn1cc(-c2ccc(Cl)c(-c3cnc(NC(=O)c4cccc(F)c4F)cn3)c2)cn1 [Compound 7]: 10
CCc1sc(-c2cc(C)on2)nc1-c1ccc(C(=O)Nc2cncnc2C)cc1 [Compound 6]: 38
Cc1cc(C)c(NC(=O)c2ccc(-c3cc(-c4nnn(C)n4)ccc3C)cc2)cn1 [Compound 3]: 46
CCc1sc(-c2cnc(C)cn2)nc1-c1ccc(C(=O)Nc2cnc(C)cc2C)cc1 [Compound 5]: 32
Cc1cc(C)c(NC(=O)c2ccc(-c3cc(-c4nnn(C)n4)ccc3Cl)cc2)cn1 [Compound 2]: 33
Cc1ccc(-c2nc(-c3ccc(C(=O)Nc4c(F)cccc4F)cc3)c(C)s2)cn1 [Compound 1]: 27
Cn1cc(-c2ccc(Cl)c(-c3cnc(NC(=O)c4ccc(F)cc4F)cn3)c2)cn1 [Compound 8]: 14
CCc1sc(-c2cc(C)on2)nc1-c1ccc(NC(=O)c2cncc(Cl)c2C)nc1 [Compound 9]: 10
